Can you tell me Kd for the items I'm about to list?
Target: NQO1 (Homo sapiens, UniProt P15559)
Sequence (P15559 whole entry): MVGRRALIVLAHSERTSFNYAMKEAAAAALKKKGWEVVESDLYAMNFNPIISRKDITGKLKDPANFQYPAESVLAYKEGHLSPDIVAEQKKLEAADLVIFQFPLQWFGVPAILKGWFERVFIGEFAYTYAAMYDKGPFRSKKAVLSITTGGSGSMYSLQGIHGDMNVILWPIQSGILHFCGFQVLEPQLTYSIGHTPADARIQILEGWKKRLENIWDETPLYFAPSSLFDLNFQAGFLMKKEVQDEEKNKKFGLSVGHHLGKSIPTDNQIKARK
Provide the measurement as a number trailed by its unit.

> print(dat)
                 smiles.representation  result
1  COc1c(O)cc2oc(-c3ccccc3)cc(=O)c2c1O  873 nM

Next:
Query :: # query: Kd of entry COc1cccc(O)c1-c1cc(=O)c2c(O)c(OC)c(OC)c(OC)c2o1
Result :: 4200 nM

====

Reported IC50, NQO1 (Homo sapiens).

Known IC50 results, listed for orientation:
> print(dat)
                   smiles.representation    result
1    COc1c(O)cc2oc(-c3ccccc3)cc(=O)c2c1O    930 nM
2  COc1c(O)cc(O)c2c(=O)cc(-c3ccccc3)oc12  10100 nM

Next:
Query :: # query: IC50 of entry COc1cccc(O)c1-c1cc(=O)c2c(O)c(OC)c(OC)c(OC)c2o1
Result :: 2870 nM
